Target: Solute carrier family 12 member 5 (Homo sapiens)
Experiment: modulation of human KCC2 ion transport – cell-based, HEK293 KCC2, FluoZin-2 fluorescence, MLSMR, primary screen (AID 1456);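 note: slope of fluorescence scaled to starting intensity during 10 to 20 s after thallium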
Conditions: KCC2 cells, thallium flux FluoZin-2 fluorescence; at 10 µM
The whole screen tested about 190,000 compounds, of which about 4,100 (2.2%) were called active. This excerpt belongs to a sample that is enriched for actives.
Response key: Y means B-score of Tl+ flux slope (higher = more flux/activation; lower = inhibition) >= 0.03; N means B-score of Tl+ flux slope (higher = more flux/activation; lower = inhibition) < 0.03.

                                    compound  classification
 0     Cc1cc2[nH]ncc2cc1NC(=S)NC(=O)c1ccccc1               Y
 1      COc1ccc(S(=O)(=O)Nc2cccnc2)c(Cl)c1Cl               Y
 2  Cc1ccc(C)c(NC(=O)CCC(=O)NNC(=O)c2cccs2)c1               N
 3            CNC(=S)N/N=C/c1ccc(N2CCOCC2)s1               Y
 4  CCc1ccccc1NC(=O)CSc1nnc(CCNC(=O)OC(C)(C)C)o1               N
 5      Cc1cccc(NC(=O)Nc2nnc(-c3ccccc3)o2)c1               Y
 6                  N=c1c2c3c(sc2ncn1N)CCCC3               Y
 7        Cc1ccccc1NC(=S)NNC(=O)c1cccc(Br)c1               Y
 8                   Cc1ccccc1NC(=O)c1ccccc1               Y
 9  COc1ccc(N2C(=O)CC(Nc3ccc(F)cc3)C2=O)c([N+](=O)[O-])c1 (stereo not given)               N
10      O=C(CCCOc1ccc(Cl)cc1Cl)NNC(=O)C1CCC1               N
11    CCN1CCN(C(=O)CCN2C(=O)c3ccccc3C2=O)CC1               Y
12  Cc1ccc(C)c(NC(=O)C(OC(=O)c2ccc(C)s2)c2ccccc2)c1 (stereo not given)               Y
13  COC(=O)c1sc(NC(=S)NC(=O)c2ccc(C)cc2)nc1C               Y
14          Cc1ccc(C(=O)NC(=S)Nc2ccccc2C)cc1               Y
15  O=C(CSc1ccc(-c2ccco2)nn1)NCc1ccc2c(c1)OCO2               N
16                C=CCNC(=S)N/N=C/c1ccc(C)s1               Y
17         CN(C)c1cc(-c2ccc(F)cc2)oc(=O)c1Cl               N
18     COC(=O)c1sc(NC(=O)c2ccc(OC)cc2OC)nc1C               N
19   N#C/C(=C\N1CCOCC1)S(=O)(=O)c1ccc(Cl)cc1               N
20  CC(C)Oc1ccc(Cc2n[nH]c(=S)n2Cc2ccccc2)cc1Cl               Y
21         Cn1c(CCCOc2ccc(Cl)cc2Cl)n[nH]c1=S               N
22  Cc1ccc(C)c2c1cc(C)c1nnc(SCC(=O)Nc3cccc(C(=O)O)c3)n12               Y
23  Cc1cc(C(=O)CSc2nc(N)cc(=O)[nH]2)c(C)n1Cc1ccco1               N
24         CC(=O)c1sc(NC(=O)c2ccc(C)cc2)nc1C               N
